The measured values listed here are drawn from patent US8846951B2.

Parameter: EC50. Scope: all listed entries.
# Target Entity: 5HT2B receptors (Homo sapiens, UniProt P41595)
# Construct: expressed in transfected cells; host or cells: CHO-K1 cells
# Sequence (P41595 whole entry): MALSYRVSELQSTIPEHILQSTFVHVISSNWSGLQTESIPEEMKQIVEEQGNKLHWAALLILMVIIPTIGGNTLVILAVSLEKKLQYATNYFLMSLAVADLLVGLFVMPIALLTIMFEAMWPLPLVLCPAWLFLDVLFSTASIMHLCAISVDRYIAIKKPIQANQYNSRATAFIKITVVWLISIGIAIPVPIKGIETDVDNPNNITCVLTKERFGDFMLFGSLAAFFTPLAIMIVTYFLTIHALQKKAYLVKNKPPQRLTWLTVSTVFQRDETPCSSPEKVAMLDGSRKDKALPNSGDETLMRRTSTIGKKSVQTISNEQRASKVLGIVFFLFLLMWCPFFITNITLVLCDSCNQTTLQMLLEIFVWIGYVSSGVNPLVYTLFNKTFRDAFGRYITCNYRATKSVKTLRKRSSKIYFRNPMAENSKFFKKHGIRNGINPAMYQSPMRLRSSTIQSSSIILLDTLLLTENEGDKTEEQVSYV
# Run Description: Human 5-HT2B functional high throughput screening assay in CHO-K1 cells (calcium flux)
# Type: cell-based
# Condition Set: 5-HT2B agonist activity; CHO-K1 cells; calcium flux; read-out: EC50
# Experimental: (iii) Human 5-HT2C and 5-HT2B Functional High Throughput Screening Assays in CHO-K1 Cells […] After incubation, the cell plates were transferred to FLIPR™ (MDS) and their fluorescence measurements were read at an excitation wavelength of 480 nm and an emission wavelength of 530 nm at 25° C. The baseline fluorescence was measured for the first 10 seconds and then 15 μL of 4× concentration of serotonin/test compound was added to the cells. […]
Property Measured: EC50

> print(dat)
                                    compound  property.measured  meas.value
 1  CN1C[C@@H]2CNC(=O)c3cc(OCc4c(F)ccc(F)c4F)ccc3[C@H]2C1               EC50     > 10 µM
 2  C=C(c1ccc2c(c1)C(=O)NC[C@@H]1CN(C)C[C@@H]21)C(F)(F)F (relative stereo)               EC50     > 10 µM
 3  CN1C[C@H]2CNC(=O)c3cc(C4CCCCC4)ccc3[C@@H]2C1 (relative stereo)               EC50     > 10 µM
 4  CN1C[C@H]2CNC(=O)c3cc(-c4ccc5ccccc5c4)ccc3[C@@H]2C1 (relative stereo)               EC50     > 10 µM
 5  COc1cccc(-c2ccc3c(c2)C(=O)NC[C@@H]2CN(C)C[C@@H]32)c1 (relative stereo) [Example 133]               EC50     > 10 µM
 6  COc1ccc2c(c1)[C@H]1CN(Cc3ccccc3)C[C@@H]1CCC2=O (relative stereo)               EC50     > 10 µM
 7  CN1C[C@@H]2CNC(=O)c3cc(OCc4ccc(F)c(F)c4)ccc3[C@H]2C1               EC50     > 10 µM
 8  O=S(=O)(c1ccccc1OC(F)(F)F)N1Cc2cccnc2[C@@H]2CNC[C@H]2C1 (relative stereo)               EC50     0.09 µM
 9  CN1C[C@H]2CNC(=O)c3cc(-c4ccccc4)ccc3[C@@H]2C1 (relative stereo)               EC50     > 10 µM
10  CC(=O)c1cccc(-c2ccc3c(c2)C(=O)NC[C@@H]2CN(C)C[C@@H]32)c1 (relative stereo)               EC50     > 10 µM
11  c1ccc(CN2CC[C@@H]3CNC[C@H]3c3ccccc32)cc1 (relative stereo)               EC50        2 µM
12  COc1ccc(-c2ccc3c(c2)C(=O)NC[C@@H]2CN(C)C[C@@H]32)cc1 (relative stereo) [Example 131]               EC50     > 10 µM
13  c1ccc2c(c1)NCC[C@@H]1CNC[C@@H]21 (relative stereo)               EC50      0.4 µM
14  CC(C)(C)c1ccc(S(=O)(=O)N2Cc3cccnc3[C@@H]3CNC[C@H]3C2)cc1 (relative stereo)               EC50     > 10 µM
15  O=C1NC[C@@H]2CN(Cc3ccccc3)C[C@H]2c2ccccc21 (racemic)               EC50     > 10 µM
